Target: plasma kallikrein (PK) (Homo sapiens, UniProt P03952)
Sequence (P03952 391-638 limits assumed, species assumed): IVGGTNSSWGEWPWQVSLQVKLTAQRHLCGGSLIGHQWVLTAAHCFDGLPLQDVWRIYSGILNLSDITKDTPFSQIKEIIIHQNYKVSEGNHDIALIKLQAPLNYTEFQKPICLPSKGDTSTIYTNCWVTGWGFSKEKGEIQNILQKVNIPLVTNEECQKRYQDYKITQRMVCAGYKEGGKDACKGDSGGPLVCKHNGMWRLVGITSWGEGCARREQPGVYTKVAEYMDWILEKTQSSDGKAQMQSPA
Sequence (P03952 20-390 partner limits assumed, species assumed): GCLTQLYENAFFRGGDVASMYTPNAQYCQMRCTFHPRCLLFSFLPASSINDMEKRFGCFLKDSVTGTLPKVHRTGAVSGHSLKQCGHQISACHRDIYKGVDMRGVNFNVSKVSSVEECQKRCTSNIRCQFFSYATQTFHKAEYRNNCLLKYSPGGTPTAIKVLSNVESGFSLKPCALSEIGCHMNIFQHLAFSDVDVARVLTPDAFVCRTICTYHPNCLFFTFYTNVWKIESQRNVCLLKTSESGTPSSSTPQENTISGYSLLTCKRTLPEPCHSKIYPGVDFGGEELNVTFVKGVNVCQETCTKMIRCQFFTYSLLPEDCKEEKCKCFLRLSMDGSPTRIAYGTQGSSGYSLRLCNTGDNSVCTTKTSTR
Test: Determining the inhibitory constants: inhibition of PK (substrate Bzl-Pro-Phe-Arg-pNA)
Details: Tris buffer pH 8.0, 25° C.; mean of at least three determinations
Experimental: The inhibitory effect for the individual enzymes was determined in analogy with a method which has already been described (Stürzebecher et al., J. Med. Chem. 40, 3091-3099, 1997). After 3 min, the reaction was terminated by adding 25 μl of acetic acid (50%) and the absorption at […] was determined using a Microplate Reader (Labsystems iEMS Reader MF). […]
Observation Type: Ki (nM)
Numbers only here, please. The scale is nM.

Completed entries (count: 3):
[in] Which Ki is reported with plasma kallikrein (PK) (Homo sapiens, UniProt P03952) for this entry: `N=C(N)c1ccc(CNC(=O)CNC(=O)[C@@H](CCc2ccccc2)NS(=O)(=O)Cc2ccc([N+](=O)[O-])cc2)cc1` ?
[out] 51

[in] Which Ki is reported with plasma kallikrein (PK) (Homo sapiens, UniProt P03952) for this entry: `CC(C)(C)OC[C@@H](NS(=O)(=O)Cc1ccccc1)C(=O)N[C@@H](CCCNC(=N)N)C(=O)NCc1ccc(C(=N)N)cc1` ?
[out] 40

[in] Which Ki is reported with plasma kallikrein (PK) (Homo sapiens, UniProt P03952) for this entry: `CC(C)(C)OC[C@@H](NS(=O)(=O)Cc1ccc(C(=O)O)cc1)C(=O)NCC(=O)NCc1ccc(C(=N)N)cc1` ?
[out] 29

***
[in] Which Ki is reported with plasma kallikrein (PK) (Homo sapiens, UniProt P03952) for this entry: CC(C)(C)OC[C@@H](NS(=O)(=O)Cc1ccccc1)C(=O)NC(CC(=O)O)CC(=O)NCc1ccc(C(=N)N)cc1 (stereo partly shown) ?
[out] 8000

[in] Which Ki is reported with plasma kallikrein (PK) (Homo sapiens, UniProt P03952) for this entry: `N=C(N)c1ccc(CNC(=O)[C@H](CCCCN)NC(=O)[C@@H](CO)NS(=O)(=O)Cc2ccccc2)cc1` ?
[out] 16
